Origin of values: patent US6410561B1

The reader will find reported melting point values listed item by item below.
Just the number in °C, nothing appended.

Take a look at these entries with their results.
{"molecule": "Cc1cc(N)c2cc(NC(=O)c3ccccc3COc3ccc(Br)cc3)ccc2n1.Cl", "measured_parameter": "melting point", "measured_number": 252}
{"molecule": "Cc1cc(N)c2cc(NC(=O)c3ccccc3COc3ccc([N+](=O)[O-])cc3)ccc2n1", "measured_parameter": "melting point", "measured_number": 148}
{"molecule": "Cc1cc(N)c2cc(NC(=O)c3ccccc3COc3ccc(C(C)C)cc3)ccc2n1.Cl", "measured_parameter": "melting point", "measured_number": 256}
{"molecule": "Cc1cc(N)c2cc(NC(=O)c3ccccc3COc3ccc(Cl)cc3Cl)ccc2n1.Cl", "measured_parameter": "melting point", "measured_number": 262}

I would be grateful if you could share the reported melting point for COC(=O)c1ccc(OCc2ccccc2C(=O)Nc2ccc3nc(C)cc(N)c3c2)cc1.Cl .
262

// query melting point value for entry COc1ccc(OCc2ccccc2C(=O)Nc2ccc3nc(C)cc(N)c3c2)cc1.Cl
276

====

Known melting point of a selection of molecules
Just the number please, in °C, no unit attached.

The following molecules have reported results that may help.
{"molecule": "Cc1cc(N)c2cc(NC(=O)c3ccccc3CNc3ccc(Cl)cc3)ccc2n1 [Example 102]", "melting point [°C]": 274}
{"molecule": "CC(=O)OCc1ccc(OCc2ccccc2C(=O)Nc2ccc3nc(C)cc(N)c3c2)cc1.Cl", "melting point [°C]": 258}
{"molecule": "Cc1cc(N)c2cc(NC(=O)c3ccccc3C[S+]([O-])c3ccc(Cl)cc3)ccc2n1.Cl (centres unmarked)", "melting point [°C]": 221}

Moving on to the next molecule.
Report melting point for Cc1cc(N)c2cc(NC(=O)c3ccccc3COc3ccc4c(c3)CCO4)ccc2n1.Cl [Example 93] please.
233

====

The following are reported log10(Ki) results, target or system ORL-1 receptor (Homo sapiens).
Transform log10 | Measure Ki | Unit nM

Here is how some compounds turned out for log10(Ki).
{"compound": "CCc1ccc(OCc2ccccc2C(=O)Nc2ccc3nc(C)cc(N)c3c2)cc1.Cl [Example 1, hydrochloride]", "test_system": "ORL-1 receptor (Homo sapiens)", "measured_number": 0.85}
{"compound": "Cc1cc(N)c2cc(NC(=O)c3ccccc3CCCCOc3ccccc3)ccc2n1.Cl", "test_system": "ORL-1 receptor (Homo sapiens)", "measured_number": 1.73}
{"compound": "Cc1cc(N)c2cc(NC(=O)c3ccccc3CCCCCCCOc3ccccc3)ccc2n1.Cl", "test_system": "ORL-1 receptor (Homo sapiens)", "measured_number": 1.81}
{"compound": "Cc1cc(N)c2cc(NC(=O)c3ccccc3CCc3ccccc3)ccc2n1", "test_system": "ORL-1 receptor (Homo sapiens)", "measured_number": 1.95}
{"compound": "COc1cc(OC)cc(OCc2ccccc2C(=O)Nc2ccc3nc(C)cc(N)c3c2)c1.Cl [Example 10, hydrochloride]", "test_system": "ORL-1 receptor (Homo sapiens)", "measured_number": 1.72}
{"compound": "CCc1cc(N)c2cc(NC(=O)c3ccccc3COc3ccc(Cl)cc3)ccc2n1.Cl", "test_system": "ORL-1 receptor (Homo sapiens)", "measured_number": 0.30}
{"compound": "Cc1ccc(OCc2ccccc2C(=O)Nc2ccc3nc(C)cc(N)c3c2)c(Cl)c1.Cl [Example 43, hydrochloride]", "test_system": "ORL-1 receptor (Homo sapiens)", "measured_number": 0.70}

Alright, here's another compound for you.
Any idea what log10(Ki) came out for Cc1cc(N)c2cc(NC(=O)c3ccccc3COc3ccc(Cl)c(C)c3)ccc2n1.Cl [Example 42, hydrochloride] on ORL-1 receptor (Homo sapiens)?
0.60

====

Record set of Ki for target or system ORL-1 receptor (Homo sapiens, UniProt P41146).
Report as a plain number; the unit nM is understood.

{"molecule": "Cc1cc(N)c2cc(NC(=O)c3ccccc3COc3ccc(C(F)(F)F)cc3)ccc2n1.Cl [Example 18, hydrochloride]", "unit_of_measurement": "nM", "Ki": 4}
{"molecule": "Cc1cc(N)c2cc(NC(=O)c3ccccc3COc3ccc(Cl)c(Cl)c3)ccc2n1.Cl [Example 26, hydrochloride]", "unit_of_measurement": "nM", "Ki": 4}
{"molecule": "Cc1cc(N)c2cc(NC(=O)c3ccccc3COc3ccc(C(C)(C)C)cc3)ccc2n1.Cl [Example 29, hydrochloride]", "unit_of_measurement": "nM", "Ki": 9}

Record request: Ki value, item CCc1ccc(OCc2ccccc2C(=O)Nc2ccc3nc(C)cc(N)c3c2)c(Cl)c1.Cl [Example 89, hydrochloride]
6

====

System: UniProt:P33535 | Read-out: pIC50
Would you please state pIC50, meaning minus log10 of the concentration in mol/L, as a bare number?

{"molecule": "COc1cc(OC)cc(OCc2ccccc2C(=O)Nc2ccc3nc(C)cc(N)c3c2)c1.Cl [Example 10, hydrochloride]", "pIC50": 6.07}
{"molecule": "Cc1cc(N)c2cc(NC(=O)c3ccccc3COc3ccc(F)cc3)ccc2n1.Cl [Example 25, hydrochloride]", "pIC50": 5.93}
{"molecule": "CCc1cc(N)c2cc(NC(=O)c3ccccc3COc3ccc(Cl)cc3Cl)ccc2n1", "pIC50": 5.85}
{"molecule": "CCc1ccc(OCc2ccccc2C(=O)Nc2ccc3nc(C)cc(N)c3c2)c(Cl)c1.Cl [Example 89, hydrochloride]", "pIC50": 5.84}

Hi! What's the reported pIC50 for COc1ccc(OCc2ccccc2C(=O)Nc2ccc3nc(C)cc(N)c3c2)cc1.Cl [Example 4, hydrochloride] on UniProt:P33535?
5.90

Request: pIC50, test system UniProt:P33535, entry Cc1cc(N)c2cc(NC(=O)c3ccccc3CCOc3ccccc3)ccc2n1.Cl
5.70

# returns recorded pIC50 (system: UniProt:P33535) for Cc1cc(N)c2cc(NC(=O)c3ccccc3COc3ccc(Cl)c(Cl)c3)ccc2n1.Cl [Example 26, hydrochloride]
5.91

====

# test_system: μ receptor (Rattus norvegicus)
# Sequence (P33535 whole entry): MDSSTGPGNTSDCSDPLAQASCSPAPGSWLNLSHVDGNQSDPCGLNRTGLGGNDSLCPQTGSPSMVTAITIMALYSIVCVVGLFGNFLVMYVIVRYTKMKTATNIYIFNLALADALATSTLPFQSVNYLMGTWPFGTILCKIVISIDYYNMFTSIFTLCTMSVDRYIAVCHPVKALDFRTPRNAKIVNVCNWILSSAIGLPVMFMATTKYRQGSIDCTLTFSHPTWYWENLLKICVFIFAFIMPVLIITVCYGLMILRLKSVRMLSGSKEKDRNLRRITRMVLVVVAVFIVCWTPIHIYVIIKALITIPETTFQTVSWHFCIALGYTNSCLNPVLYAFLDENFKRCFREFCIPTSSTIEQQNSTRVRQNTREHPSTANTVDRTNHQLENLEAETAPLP
Labelling field: enter condition met if recorded IC50 is less than 1 µM. Enter condition not met if it equals or exceeds that cut-off.

{"molecule": "Cc1cc(N)c2cc(NC(=O)c3ccccc3COc3ccc(C#N)cc3)ccc2n1.Cl [Example 16, hydrochloride]", "classification": "condition met"}

Does Cc1cc(N)c2cc(NC(=O)c3ccccc3COc3ccc([N+](=O)[O-])cc3)ccc2n1.Cl [Example 32, hydrochloride] have IC50 strictly under 1 µM?
condition met

====

# System: allodynia model
# assay_summary: Allodynia test (intrathecal nociceptin, tactile stimulation)
# Format: in vivo, Mice
# measurement_parameters: Mus musculus, po, read-out: Allodynia M.E.D. (minimum effective dose)
Listing of entries alongside the reported minimal effective dose.
Note: unit mg/kg is implicit; provide only the numeric part.

{"chemical_smiles": "Cc1ccc(OCc2ccccc2C(=O)Nc2ccc3nc(C)cc(N)c3c2)cc1.Cl", "minimal effective dose (mg/kg)": 0.3}

# evaluate next
Bench note: what minimal effective dose did Cc1cc(N)c2cc(NC(=O)c3ccccc3COc3ccccc3Cl)ccc2n1.Cl show?
0.3

====

These records show Ki for μ receptor (Rattus norvegicus, UniProt P33535).
// units = nM; emit number, no label

{"compound": "Cc1cc(N)c2cc(NC(=O)c3ccccc3COc3ccc(Cl)cc3Cl)ccc2n1.Cl [Example 2, hydrochloride]", "Ki [nM]": 497}
{"compound": "CCc1cc(N)c2cc(NC(=O)c3ccccc3COc3ccc(Cl)cc3)ccc2n1.Cl", "Ki [nM]": 464}
{"compound": "Cc1cc(N)c2cc(NC(=O)c3ccccc3CCCOc3ccccc3)ccc2n1.Cl", "Ki [nM]": 2010}
{"compound": "CCc1cc(N)c2cc(NC(=O)c3ccccc3COc3ccc(Cl)cc3Cl)ccc2n1", "Ki [nM]": 525}
{"compound": "CCc1ccc(OCc2ccccc2C(=O)Nc2ccc3nc(C)cc(N)c3c2)cc1.Cl [Example 1, hydrochloride]", "Ki [nM]": 570}
{"compound": "Cc1cc(N)c2cc(NC(=O)c3ccccc3COc3ccc(I)cc3)ccc2n1", "Ki [nM]": 1020}
{"compound": "Cc1cc(N)c2cc(NC(=O)c3ccccc3COc3ccc([N+](=O)[O-])cc3)ccc2n1.Cl [Example 32, hydrochloride]", "Ki [nM]": 227}
{"compound": "Cc1cc(N)c2cc(NC(=O)c3ccccc3COc3cccc([N+](=O)[O-])c3)ccc2n1.Cl [Example 19, hydrochloride]", "Ki [nM]": 388}
{"compound": "Cc1cc(N)c2cc(NC(=O)c3ccccc3COc3ccc(Br)cc3)ccc2n1.Cl [Example 33, hydrochloride]", "Ki [nM]": 565}
{"compound": "Cc1cc(N)c2cc(NC(=O)c3ccccc3COc3ccccc3)ccc2n1.Cl [Example 3, hydrochloride]", "Ki [nM]": 417}

Return reported Ki; argument: Cc1cc(N)c2cc(NC(=O)c3ccccc3COc3ccc(F)cc3)ccc2n1.Cl [Example 25, hydrochloride]
464

Recorded Ki of Cc1cc(N)c2cc(NC(=O)c3ccccc3CCCCOc3ccccc3)ccc2n1.Cl , please.
545
